Each entry below carries its measured pIC50, system: CYP2C19 (Homo sapiens).
Sequence (P33261 whole entry): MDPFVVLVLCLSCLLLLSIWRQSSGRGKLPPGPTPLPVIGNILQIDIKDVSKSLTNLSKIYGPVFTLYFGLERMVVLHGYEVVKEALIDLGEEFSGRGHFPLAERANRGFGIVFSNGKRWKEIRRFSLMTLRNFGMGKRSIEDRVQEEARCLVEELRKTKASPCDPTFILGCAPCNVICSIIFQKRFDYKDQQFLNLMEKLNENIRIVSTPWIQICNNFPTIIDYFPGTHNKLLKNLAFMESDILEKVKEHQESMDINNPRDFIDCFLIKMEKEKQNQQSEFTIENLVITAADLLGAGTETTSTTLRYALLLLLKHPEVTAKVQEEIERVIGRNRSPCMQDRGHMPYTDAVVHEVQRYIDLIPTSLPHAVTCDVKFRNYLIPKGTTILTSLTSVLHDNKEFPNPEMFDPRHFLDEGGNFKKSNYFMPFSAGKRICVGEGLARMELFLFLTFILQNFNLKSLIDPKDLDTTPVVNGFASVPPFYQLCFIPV
pIC50: −log10 of the molar value.

{"compound": "C[C@@H]1COc2c(-c3nc(N[C@@H]4CCOC[C@H]4O)ncc3Cl)cc(F)c3nc(C(C)(C)O)n1c23 (single isomer, unassigned) [Isomer 2 with a retention time of 1.887 min]", "pIC50": "< 4.52"}

For the compound C[C@H]1COc2c(-c3nc(N[C@@H]4CCOC[C@H]4O)ncc3Cl)cc(F)c3nc(C(C)(C)O)n1c23 (single isomer, unassigned) [Isomer 1 with a retention time of 2.078 min] , give its measured pIC50 value.
< 4.52

###

Biological target: CDK4/CyclinD1 (Homo sapiens)
Sequence (P11802 whole entry): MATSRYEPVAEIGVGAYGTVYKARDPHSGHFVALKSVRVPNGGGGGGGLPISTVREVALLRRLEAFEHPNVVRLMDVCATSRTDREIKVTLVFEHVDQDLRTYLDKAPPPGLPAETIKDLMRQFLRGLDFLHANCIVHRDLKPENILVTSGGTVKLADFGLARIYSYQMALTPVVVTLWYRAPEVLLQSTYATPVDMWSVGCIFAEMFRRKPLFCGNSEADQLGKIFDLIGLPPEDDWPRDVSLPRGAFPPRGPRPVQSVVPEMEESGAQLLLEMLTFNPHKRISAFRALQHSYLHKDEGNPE
Sequence (P24385 whole entry partner): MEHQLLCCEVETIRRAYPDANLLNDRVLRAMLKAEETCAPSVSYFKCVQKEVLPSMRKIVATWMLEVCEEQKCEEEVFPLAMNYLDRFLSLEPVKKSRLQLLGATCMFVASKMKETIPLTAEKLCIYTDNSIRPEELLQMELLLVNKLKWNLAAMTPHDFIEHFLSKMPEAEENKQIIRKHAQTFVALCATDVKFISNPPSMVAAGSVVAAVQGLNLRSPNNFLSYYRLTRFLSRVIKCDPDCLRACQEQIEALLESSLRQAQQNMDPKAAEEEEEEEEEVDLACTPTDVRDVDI
Experiment: Kinase activity assay, mobility shift assay (CDK4/CyclinD1)
Conditions: Table 18; read-out: CDK4/D1 IC50
This listing pairs compounds with measured IC50.
# value in nM; strip the unit string

{"compound": "C[C@H]1COc2c(-c3nc(N[C@@H]4CCOC[C@H]4O)ncc3Cl)cc(F)c3nc(C(C)(C)O)n1c23 (single isomer, unassigned) [Isomer 1 with a retention time of 2.078 min]", "reported_result": 8.2}

Report value only: IC50, CDK4/CyclinD1 (Homo sapiens), C[C@@H]1COc2c(-c3nc(N[C@@H]4CCOC[C@H]4O)ncc3Cl)cc(F)c3nc(C(C)(C)O)n1c23 (single isomer, unassigned) [Isomer 2 with a retention time of 1.887 min]
14

###

Assay: Long-term/accelerated stability of crystal forms
Format: physicochemical
Conditions: 40 °C/75% RH, Initial, sealed in aluminum foil bag
measured_endpoint: Purity% (%)
# value in %; strip the unit string

For the molecule C[C@H]1COc2c(-c3nc(N[C@@H]4CCOC[C@H]4O)ncc3Cl)cc(F)c3nc(C(C)(C)O)n1c23 [Crystal form H] , give its measured Purity% value.
99.95

For the molecule C[C@H]1COc2c(-c3nc(N[C@@H]4CCOC[C@H]4O)ncc3Cl)cc(F)c3nc(C(C)(C)O)n1c23 [Crystal form F] , give its measured Purity% value.
99.9

For the molecule C[C@H]1COc2c(-c3nc(N[C@@H]4CCOC[C@H]4O)ncc3Cl)cc(F)c3nc(C(C)(C)O)n1c23 [Crystal form E] , give its measured Purity% value.
99.9

###

Experiment: Hygroscopicity study of free-state crystal forms (DVS)
Format: physicochemical
Conditions: DVS, 25 °C, 0.0% RH-80.0% RH
Experimental: Testing was performed using Surface Measurement Systems advantage 2, at 25 °C, with the humidity changing from 50% -95%-0%-95%-50%RH, in steps of 10%. The criterion was that each gradient mass change dM/dT is less than 0.002%, TMAX 360 min, two cycles. Surface Measurement Systems intrinsic DVS was adopted. At 25 °C, the crystal forms were tested in a humidity range of 0%-95%, with increments of 10%. The criterion was that each gradient mass change dM/dT is less than 0.002%, TMAX 360 min, two cycles.
Labelling field: enter Y if recorded 0.0% RH-80.0% RH (hygroscopicity, mass change) is less than 0.5%. Enter N if it equals or exceeds that cut-off.

These recorded examples may help you get a feel for the data.
{"compound": "C[C@H]1COc2c(-c3nc(N[C@@H]4CCOC[C@H]4O)ncc3Cl)cc(F)c3nc(C(C)(C)O)n1c23 [Crystal form G]", "assigned_category": "N"}
{"compound": "C[C@H]1COc2c(-c3nc(N[C@@H]4CCOC[C@H]4O)ncc3Cl)cc(F)c3nc(C(C)(C)O)n1c23 [Crystal form D]", "assigned_category": "Y"}
{"compound": "C[C@H]1COc2c(-c3nc(N[C@@H]4CCOC[C@H]4O)ncc3Cl)cc(F)c3nc(C(C)(C)O)n1c23 [Crystal form E]", "assigned_category": "N"}

Identify whether the compound C[C@H]1COc2c(-c3nc(N[C@@H]4CCOC[C@H]4O)ncc3Cl)cc(F)c3nc(C(C)(C)O)n1c23 [Crystal form H] records 0.0% RH-80.0% RH (hygroscopicity, mass change) below 0.5%.
Y

Identify whether the compound C[C@H]1COc2c(-c3nc(N[C@@H]4CCOC[C@H]4O)ncc3Cl)cc(F)c3nc(C(C)(C)O)n1c23 [Crystal form F] records 0.0% RH-80.0% RH (hygroscopicity, mass change) below 0.5%.
N
